IC50, Renin (Homo sapiens, UniProt P00797), per-entry values.
measured_endpoint: IC50 (nM)

>>> experimental_result("CCc1nc(N)nc(NCCc2ccccc2NC(=O)c2ccc(N)c(OC)c2)c1-c1ccc2c(c1)N(CCCOC)C(=O)C(C)(C)O2")
336
>>> experimental_result("CCc1nc(N)nc(NCCNS(=O)(=O)c2ccc3ccccc3c2)c1-c1ccc2c(c1)N(CCCOC)C(=O)C(C)(C)O2")
27
>>> experimental_result("CCc1nc(N)nc(N)c1-c1ccc(NCc2cc(F)cc(F)c2)cc1")
6560
